Record form. Attribute: Relative activity. Fill in for each entry.
# Test system: RAX (acetoacetyl-CoA reductase)
# assay explanation: Ethyl 4-chloroacetoacetate reducing activity of RAX in the presence of inhibitors
# Type: biochemical
# condition notes: inhibitor 1.0 mM; 10 mM ethyl 4-chloroacetoacetate, 0.25 mM NADPH, pH 6.5, 30° C., 3 minutes; activity without inhibitor = 100%
Give a bare numeral; the unit % is implied.

Task item: Which Relative activity is listed for O=S(=O)(F)Cc1ccccc1 [Phenylmethylsulfonyl fluoride] ?
Reply: 108

Task item: Which Relative activity is listed for CCN1C(=O)C=CC1=O [N-Ethylmaleimide] ?
Reply: 103

Task item: Which Relative activity is listed for O=S(=O)([O-])[O-].[Mg+2] ?
Reply: 100

Task item: Which Relative activity is listed for O=C(O)c1cc[c]([Hg][Cl])cc1 ?
Reply: 0

Task item: Which Relative activity is listed for [Cl][Mn][Cl] ?
Reply: 97

Task item: Which Relative activity is listed for O=S(=O)([O-])[O-].[Cu+2] [CuSO4, copper sulfate] ?
Reply: 0

Task item: Which Relative activity is listed for O=S(=O)([O-])[O-].[Zn+2] ?
Reply: 81
